EXPERIMENT_SUMMARY: physchem
CONDITION_SET: water, thermodynamic from solid
METRIC_NAME: solubility at 18 h (µg/mL)
Numbers only; they are read as µg/mL.

I am curious: what solubility at 18 h value has been reported for COCCOC(=O)C1=C(C)NC(C)=C(C(=O)OC(C)C)C1c1cccc([N+](=O)[O-])c1 (stereo not shown) ? 1.1
